# System: CSNK1A1
# measurement_context: concentration: 1 μM, replicates: in singlicate; n = 1
Measured %Inh of individual entries
Please state the figure in %; there is no need to write the unit.

Here are 5 compounds together with their reported answers.
                                   compound  target_entity  recorded_metric  observed_measurement
0  COc1ccc(Nc2nccc(-c3cccc(NC(=O)c4cc5cc(F)ccc5[nH]4)c3)n2)cc1        CSNK1A1             %Inh                     0
1  Cc1nnc(-c2ccc3occ(-c4ccc(S(C)=O)cc4)c3c2)[nH]1 (stereo not drawn)        CSNK1A1             %Inh                     0
2  Cc1c(O)cccc1Nc1ccnc2ccc(C(F)(F)F)cc12.Cl        CSNK1A1             %Inh                     0
3      Cc1csc(-c2nc(Nc3ccncc3)c3ccccc3n2)n1        CSNK1A1             %Inh                    28
4  CC1=C(C(=O)Nc2cc3cn[nH]c3cc2F)C(c2ccc(C(F)(F)F)cc2)CC(=O)N1 (stereo not drawn)        CSNK1A1             %Inh                     0

Challenge: Consider the compound COc1ccccc1CNC(=O)c1cc(C(=O)c2ccccc2C)c[nH]1 and give its measured %Inh.
Response given: 0

Challenge: Consider the compound Cc1cc(N2Cc3ccccc3C2)nc(Nc2ccc(S(=O)(=O)N3CCOCC3)cc2)n1.Cl and give its measured %Inh.
Response given: 0

Challenge: Consider the compound CC(C)(C)c1ccc(C(=O)Nc2cn3cc(Cl)ccc3n2)cc1 and give its measured %Inh.
Response given: 19

* * *

# Test system: MLK3
# measurement_context: concentration: 1 μM, replicates: in singlicate; n = 1
recorded_metric: %Inh (%)
Please state the figure in %; there is no need to write the unit.

Here are 8 compounds together with their reported answers.
                                   compound  recorded_metric  observed_measurement
0  O=c1cc(N2CCOCC2)nc2n(Cc3cccc(Cl)c3Cl)ccn12             %Inh                     7
1  O=C(Nc1ccc2c(c1)OCO2)NC1CCN(c2ccnc(Nc3ccc(F)cc3)n2)C1 (stereo not drawn)             %Inh                     2
2  COC(=O)c1c(-c2ccccc2)c2cc(OC)ccc2c(=O)n1Cc1ccccc1             %Inh                     0
3  Cn1ccc2ncnc(Oc3ccc(NC(=O)Nc4ccccc4)cc3)c21             %Inh                    19
4  C[C@@H]1CCCCN1c1cc(-c2ccc3c(N)n[nH]c3c2)nc(N)n1             %Inh                     0
5           Fc1cc(Cl)ccc1Nc1ccnc2cc(I)ccc12             %Inh                     0
6  Clc1cc(Cl)cc(Nc2ccnc(Nc3cc(Cl)cc(Cl)c3)n2)c1             %Inh                    10
7   O=C(Nc1ccccc1)Nc1cccc(Oc2ccc3nccn3n2)c1             %Inh                     0

Now examine the next entry.
Challenge: API: value(readout= %Inh, system= MLK3, query= O=C(O)COc1ncnc2cc(-c3ccc4[nH]ncc4c3)sc12 )
Response given: 0

* * *

# Tested on: RAF1
Measured pKd of individual entries
Please express pKd as -log10 of the molar concentration.

Here are 3 compounds together with their reported answers.
>>> print(df.to_string())
                            compound_smiles  recorded_metric  observed_measurement
0  Cc1cccc(-c2nc(-c3ccc(S(C)(=O)=O)cc3)sc2-c2ccnc(NCCc3ccccc3)c2)c1              pKd                  6.82
1  CN(C)CCN(C)C(=O)c1cc(-c2ccncc2)c(-c2ccc(Cl)c(O)c2)o1.Cl.Cl              pKd                  6.19
2  COC(=O)c1c(-c2ccccc2)c2cc(OC)ccc2c(=O)n1Cc1ccccc1              pKd                  6.41

Now examine the next entry.
Challenge: API: value(readout= pKd, system= RAF1, query= Cc1ccc(NC(=O)Nc2cc(C(C)(C)C)nn2-c2ccccc2)cc1 );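 further: kd values determined as follow-up on hits from a single-replicate KINOMEscan panel screen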
Response given: 6.57

* * *

Measured %Inh of individual entries
# Test system: SRC
# measurement_context: concentration: 1 μM, replicates: in singlicate; n = 1
Please state the figure in %; there is no need to write the unit.

>>> print(df.to_string())
                                   molecule  observed_measurement
0  O=S(=O)(c1ccc(-c2ccnc3[nH]ccc23)cc1)N1CCCC1                     0
1  COC(=O)c1c(-c2ccccc2)c2cc(OC)ccc2c(=O)n1Cc1ccccc1                     8
2  Cc1cccc(-c2nc(-c3ccc(S(C)(=O)=O)cc3)sc2-c2ccnc(NCCc3ccccc3)c2)c1                     0

Challenge: Consider the molecule CCn1c(-c2cccnc2O)nc2cnccc21 and give its measured %Inh.
Response given: 0

Challenge: Consider the molecule CN1C(=O)C(Nc2ccc(Cl)c(C(=O)O)c2)=C(c2ccc(Cl)cc2)C1=O and give its measured %Inh.
Response given: 0

Challenge: Consider the molecule Nc1ncnc2[nH]c(-c3ccccc3)nc12 and give its measured %Inh.
Response given: 29

Challenge: Consider the molecule O=C(O)COc1ncnc2cc(-c3ccc4[nH]ncc4c3)sc12 and give its measured %Inh.
Response given: 0

Challenge: Consider the molecule Cc1cc(N2Cc3ccccc3C2)nc(Nc2ccc(S(=O)(=O)N3CCOCC3)cc2)n1.Cl and give its measured %Inh.
Response given: 0

Challenge: Consider the molecule O=C(Nc1n[nH]c2nc(-c3nccs3)c(Br)cc12)C1CCCC1 and give its measured %Inh.
Response given: 0

Challenge: Consider the molecule COc1ccc(Nc2nccc(NCCNC(=O)Nc3ccccc3F)n2)cc1 and give its measured %Inh.
Response given: 0

* * *

# Tested on: RIOK1
# measurement_context: concentration: 1 μM, replicates: in singlicate; n = 1
Measured %Inh of individual entries
Please state the figure in %; there is no need to write the unit.

Here are 8 molecules together with their reported answers.
>>> df
                                   molecule  recorded_metric  endpoint_unit  observed_measurement
0  Cn1cncc1-c1ccc2ncnc(Nc3ccc(OCc4ccccc4)cc3)c2c1 [GW320571]             %Inh              %                    32
1  Cl.O=C(Nc1cccc(-c2nn3ncccc3c2-c2ccnc(Nc3cccnc3)n2)c1)c1c(F)cccc1F [GSK312879]             %Inh              %                    31
2  Cc1cccc(-c2nc(C)cc(Nc3ccncc3)n2)n1 [GSK257997]             %Inh              %                    20
3  Cn1ccc2ncnc(Oc3cccc(C(=O)Nc4ccccc4)c3)c21             %Inh              %                    38
4  Cc1c(Cn2ccn3c(=O)cc(N4CCOCC4)nc23)cccc1C(F)(F)F [GSK2289044]             %Inh              %                     3
5  Cl.c1ccc(-c2n[nH]cc2-c2ccnc(-c3ccc(CN4CCOCC4)cc3)c2)nc1 [GW776245]             %Inh              %                    19
6  Cc1cccc(-c2cc(Nc3ccncc3)c3ccccc3n2)n1 [GSK223675]             %Inh              %                    19
7  Cl.NC(=O)c1cccc(Nc2nccc(Nc3ccc(Oc4cccc(Cl)c4)c(Cl)c3)n2)c1 [GW659008]             %Inh              %                    37

Challenge: Consider the molecule COc1cc(Nc2nccc(N3CCC(NC(=O)Nc4cc(C)ccc4C)C3)n2)cc(OC)c1OC (centres unmarked) [GSK1379762] and give its measured %Inh.
Response given: 60

Challenge: Consider the molecule CS(=O)(=O)c1ccc(-c2c(-c3ncn[nH]3)sc(N3CCOCC3)c2C#N)cc1 and give its measured %Inh.
Response given: 0

Challenge: Consider the molecule COc1ccc(C2=C(Nc3cccc(C(=O)O)c3)C(=O)NC2=O)cc1 [SB-390765] and give its measured %Inh.
Response given: 13

Challenge: Consider the molecule COc1ccc(Nc2nccc(NCCNC(=O)Nc3ccccc3F)n2)cc1 [GSK1379901] and give its measured %Inh.
Response given: 40

Challenge: Consider the molecule CC(C)(C)c1ccc(C(=O)Nc2cn3cc(Cl)ccc3n2)cc1 and give its measured %Inh.
Response given: 25

Challenge: Consider the molecule C[C@@H]1CCCCN1c1cc(-c2ccc3c(N)n[nH]c3c2)nc(N)n1 [GSK2258759] and give its measured %Inh.
Response given: 47

Challenge: Consider the molecule Clc1cc(Cl)cc(Nc2ccnc(Nc3cc(Cl)cc(Cl)c3)n2)c1 [GSK175726] and give its measured %Inh.
Response given: 34

Challenge: Consider the molecule COc1ccccc1CNC(=O)c1cc(C(=O)c2ccccc2C)c[nH]1 [GSK364507] and give its measured %Inh.
Response given: 30

Challenge: Consider the molecule O=C(Nc1ccc2c(c1)OCO2)NC1CCN(c2ccnc(Nc3ccc(F)cc3)n2)C1 (centres unmarked) [GSK1379724] and give its measured %Inh.
Response given: 9
